molecular target: SWI/SNF-related matrix-associated actin-dependent regulator of chromatin subfamily A member 2 (Homo sapiens)
Sequence (P51531 whole entry): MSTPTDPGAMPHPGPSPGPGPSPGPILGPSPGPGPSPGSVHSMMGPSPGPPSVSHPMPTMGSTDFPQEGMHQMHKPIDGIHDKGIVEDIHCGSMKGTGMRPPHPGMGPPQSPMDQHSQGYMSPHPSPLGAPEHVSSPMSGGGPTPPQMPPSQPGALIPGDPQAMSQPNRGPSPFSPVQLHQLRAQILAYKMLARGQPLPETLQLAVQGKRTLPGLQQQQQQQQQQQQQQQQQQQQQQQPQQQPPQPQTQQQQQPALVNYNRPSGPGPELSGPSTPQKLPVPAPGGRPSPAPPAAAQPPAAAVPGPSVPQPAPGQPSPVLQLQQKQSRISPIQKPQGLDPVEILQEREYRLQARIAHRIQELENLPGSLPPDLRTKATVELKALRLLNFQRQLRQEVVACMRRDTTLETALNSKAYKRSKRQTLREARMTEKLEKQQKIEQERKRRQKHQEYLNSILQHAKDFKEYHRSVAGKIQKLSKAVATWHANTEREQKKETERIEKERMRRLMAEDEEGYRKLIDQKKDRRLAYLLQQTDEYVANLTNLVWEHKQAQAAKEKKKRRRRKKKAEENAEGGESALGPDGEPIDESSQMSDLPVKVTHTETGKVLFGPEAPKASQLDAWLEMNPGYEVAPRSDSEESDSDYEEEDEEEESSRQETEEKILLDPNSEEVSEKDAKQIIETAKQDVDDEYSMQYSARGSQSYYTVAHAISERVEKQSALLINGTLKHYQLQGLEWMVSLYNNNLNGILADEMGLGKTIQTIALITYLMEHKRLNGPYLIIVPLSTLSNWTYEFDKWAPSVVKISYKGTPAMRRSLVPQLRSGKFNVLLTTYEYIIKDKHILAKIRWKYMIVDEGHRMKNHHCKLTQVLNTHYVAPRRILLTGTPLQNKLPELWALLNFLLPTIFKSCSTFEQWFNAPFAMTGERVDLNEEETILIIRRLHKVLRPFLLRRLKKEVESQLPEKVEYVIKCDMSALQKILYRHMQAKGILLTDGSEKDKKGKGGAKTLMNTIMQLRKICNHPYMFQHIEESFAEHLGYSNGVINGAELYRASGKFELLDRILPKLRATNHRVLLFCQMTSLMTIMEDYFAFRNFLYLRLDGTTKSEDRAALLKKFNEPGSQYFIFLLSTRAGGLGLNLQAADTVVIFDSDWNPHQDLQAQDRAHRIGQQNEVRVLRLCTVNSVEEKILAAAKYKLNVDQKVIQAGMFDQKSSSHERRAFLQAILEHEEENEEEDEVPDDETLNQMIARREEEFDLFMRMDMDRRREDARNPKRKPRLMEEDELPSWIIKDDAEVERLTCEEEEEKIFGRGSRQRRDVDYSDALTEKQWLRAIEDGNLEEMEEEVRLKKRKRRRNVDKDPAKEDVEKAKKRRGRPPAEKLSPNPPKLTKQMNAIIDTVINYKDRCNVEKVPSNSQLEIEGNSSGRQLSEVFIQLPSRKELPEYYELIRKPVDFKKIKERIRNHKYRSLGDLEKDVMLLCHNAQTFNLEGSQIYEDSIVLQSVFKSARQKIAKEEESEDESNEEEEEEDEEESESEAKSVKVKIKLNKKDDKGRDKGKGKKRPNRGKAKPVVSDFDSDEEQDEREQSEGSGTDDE
pIC50: −log10 of the molar value.
reported_property: pIC50

I. CC1(C)c2c(C3CCNCC3)cccc2-n2c1nc(=O)c1c(Cl)cccc12
II. Cc1ncsc1-c1ccc([C@H](C)NC(=O)[C@@H]2C[C@@H](O)CN2C(=O)[C@@H](c2cc(N3CCC(CN4CCC(c5cccc6c5C(C)(C)c5nc(=O)c7c(Cl)cccc7n5-6)CC4)CC3)no2)C(C)C)cc1
Between these two entries, I and II , state which has the higher pIC50. Label of pick, please.
I

---

target: von Hippel-Lindau disease tumor suppressor/SWI/SNF-related matrix-associated actin-dependent regulator of chromatin subfamily A member 2 (Homo sapiens, UniProt P51531+P40337); experiment: PROTAC activity at VHL/SMARCA2 in human HT-1080 cells assessed as induction of SMARCA2 degradation incubated for 24 hrs by Nano-Glo HiBiT Lytic Detection Assay; assay type: cell-based
Sequence (P51531 whole entry): as above
Sequence (P40337 whole entry): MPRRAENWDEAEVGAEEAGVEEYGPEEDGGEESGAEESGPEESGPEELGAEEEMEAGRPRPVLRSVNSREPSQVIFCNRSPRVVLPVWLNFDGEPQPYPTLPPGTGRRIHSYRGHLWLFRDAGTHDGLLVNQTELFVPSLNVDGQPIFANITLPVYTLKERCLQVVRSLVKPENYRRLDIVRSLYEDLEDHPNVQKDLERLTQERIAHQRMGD
reported_property: DC50 (nM)

I. Cc1ncsc1-c1ccc([C@H](C)NC(=O)[C@@H]2C[C@@H](O)CN2C(=O)[C@@H](c2cc(OCC3(CN4CCC(c5ccc6c(c5)C(C)(C)c5nc(=O)c7c(Cl)cccc7n5-6)CC4)CC3)no2)C(C)C)cc1
II. Cc1ncsc1-c1ccc([C@H](C)NC(=O)[C@@H]2C[C@@H](O)CN2C(=O)[C@@H](n2cc([C@H]3CC[C@H](CN4CCC(c5ccc6c(c5)-n5c(nc(=O)c7c(Cl)cccc75)C6(C)C)CC4)CC3)nn2)C(C)(C)C)cc1
III. Cc1ncsc1-c1ccc([C@H](C)NC(=O)[C@@H]2C[C@@H](O)CN2C(=O)[C@@H](NC(=O)[C@H]2CC[C@H](CN3CCC(c4ccc5c(c4)-n4c(nc(=O)c6c(Br)cccc64)C5(C)C)CC3)CC2)C(C)(C)C)cc1
// rank the listed compounds by DC50, lowest value first Dear reader, please state the labels in the requested order.
II, III, I
(II: 1.3 nM, III: 6.4 nM, I: 13 nM)
